testProtocol: self-splicing fitness, log relative to wild type (ln ratio); higher = more splicing; Tetrahymena group I intron in knt gene, E. coli kanamycin selection, DiMSum; sequences stand for … in CUCUCU…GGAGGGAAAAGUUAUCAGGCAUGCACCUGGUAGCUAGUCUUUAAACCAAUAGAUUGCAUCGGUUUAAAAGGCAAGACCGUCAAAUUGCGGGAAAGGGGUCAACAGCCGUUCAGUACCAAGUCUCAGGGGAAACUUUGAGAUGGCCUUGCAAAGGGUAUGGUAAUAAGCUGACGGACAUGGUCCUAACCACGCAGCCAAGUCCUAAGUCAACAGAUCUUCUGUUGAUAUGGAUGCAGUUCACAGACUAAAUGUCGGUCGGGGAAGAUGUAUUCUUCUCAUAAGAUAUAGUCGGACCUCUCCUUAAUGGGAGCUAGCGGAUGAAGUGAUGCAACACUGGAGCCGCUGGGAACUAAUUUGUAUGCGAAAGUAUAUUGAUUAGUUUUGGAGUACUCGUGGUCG;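 also: selection with 25 µg/mL kanamycin versus none on LB agar overnight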
recordedConditions: 30 °C
parameter: self-splicing fitness (ln)
Could you keep your reply to the number by itself?

Query: Data request, read-out self-splicing fitness (ln), for `ACAAAGCAAUAUUACGCCAG`
Result: -1.94

Query: Data request, read-out self-splicing fitness (ln), for `AAUAAGCAAUAUUACGUGCU`
Result: -1.8

Query: Data request, read-out self-splicing fitness (ln), for `UACCAGCAAUAUUACGCCGC`
Result: -2.89

Query: Data request, read-out self-splicing fitness (ln), for `CUCGAGCAAUAUUACGCAUC`
Result: -3.3

Query: Data request, read-out self-splicing fitness (ln), for `GUUGAGCAAUAUUACGUUAA`
Result: -2.83

Query: Data request, read-out self-splicing fitness (ln), for `UAUCAGCAAUAUUACGCGAG`
Result: -0.712

Query: Data request, read-out self-splicing fitness (ln), for `UCUCAGCAAUAUUACGAUAC`
Result: -1.92

Query: Data request, read-out self-splicing fitness (ln), for `AGUCAGCAAUAUUACGAGGC`
Result: -2.81

====

testProtocol: self-splicing fitness, log relative to wild type (ln ratio); higher = more splicing; Tetrahymena group I intron in knt gene, E. coli kanamycin selection, DiMSum; sequences stand for … in CUCUCU…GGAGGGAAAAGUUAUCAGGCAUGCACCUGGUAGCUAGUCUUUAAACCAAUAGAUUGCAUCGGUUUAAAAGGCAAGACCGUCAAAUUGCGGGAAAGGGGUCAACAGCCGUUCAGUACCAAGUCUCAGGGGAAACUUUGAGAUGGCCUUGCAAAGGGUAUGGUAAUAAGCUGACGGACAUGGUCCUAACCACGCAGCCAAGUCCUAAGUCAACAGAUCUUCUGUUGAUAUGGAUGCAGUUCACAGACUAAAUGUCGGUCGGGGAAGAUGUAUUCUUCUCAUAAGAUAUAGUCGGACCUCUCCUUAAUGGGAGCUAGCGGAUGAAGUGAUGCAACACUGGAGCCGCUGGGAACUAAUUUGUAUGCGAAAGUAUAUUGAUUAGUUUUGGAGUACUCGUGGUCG
recordedConditions: 30 °C
Give self-splicing fitness (ln) for every item shown.
Could you keep your reply to the number by itself?

Query: Data request, read-out self-splicing fitness (ln), for `CUAGAGCAAUAUUACGGAAU`
Result: -3.15

Query: Data request, read-out self-splicing fitness (ln), for `GUAAAGCAAUAUUACGGGAU`
Result: -1.62

Query: Data request, read-out self-splicing fitness (ln), for `CUAUAGCAAUAUUACGUGUG`
Result: -1.04

Query: Data request, read-out self-splicing fitness (ln), for `CGGAAGCAAUAUUACGGAUG`
Result: -2.02

Query: Data request, read-out self-splicing fitness (ln), for `GGACAGCAAUAUUACGCUGU`
Result: -2.73

Query: Data request, read-out self-splicing fitness (ln), for `CCAAAGCAAUAUUACGCAUG`
Result: -1.22

Query: Data request, read-out self-splicing fitness (ln), for `GUCCAGCAAUAUUACGUUGC`
Result: -2.05

Query: Data request, read-out self-splicing fitness (ln), for `UCUGAGCAAUAUUACGCGUG`
Result: -2.36

Query: Data request, read-out self-splicing fitness (ln), for `UUCAAGCAAUAUUACGUAUG`
Result: -3.21

Query: Data request, read-out self-splicing fitness (ln), for `GCAUAGCAAUAUUACGGGAC`
Result: -2.49

Query: Data request, read-out self-splicing fitness (ln), for `AUUCAGCAAUAUUACGGGGU`
Result: -3.78

Query: Data request, read-out self-splicing fitness (ln), for `CCCUAGCAAUAUUACGGUAU`
Result: -3.5

Query: Data request, read-out self-splicing fitness (ln), for `GGCGAGCAAUAUUACGCCUC`
Result: -1.67

Query: Data request, read-out self-splicing fitness (ln), for `UUAAAGCAAUAUUACGCAAC`
Result: -3.92

Query: Data request, read-out self-splicing fitness (ln), for `GGUGAGCAAUAUUACGGGUA`
Result: -2.58

Query: Data request, read-out self-splicing fitness (ln), for `UUGAAGCAAUAUUACGUAGA`
Result: -1.28

Query: Data request, read-out self-splicing fitness (ln), for `CAGUAGCAAUAUUACGUAUU`
Result: -3.48

Query: Data request, read-out self-splicing fitness (ln), for `UAGCAGCAAUAUUACGGUGA`
Result: -0.912

Query: Data request, read-out self-splicing fitness (ln), for `CGCGAGCAAUAUUACGAUUU`
Result: -3.35

Query: Data request, read-out self-splicing fitness (ln), for `UGACAGCAAUAUUACGGCAG`
Result: -0.0451

Query: Data request, read-out self-splicing fitness (ln), for `GGCAAGCAAUAUUACGGCAG`
Result: -2.32

Query: Data request, read-out self-splicing fitness (ln), for `UCAUAGCAAUAUUACGGUGC`
Result: -2.88

Query: Data request, read-out self-splicing fitness (ln), for `CAUGAGCAAUAUUACGGCAU`
Result: -3.35

Query: Data request, read-out self-splicing fitness (ln), for `CCGUAGCAAUAUUACGAUAU`
Result: -2

Query: Data request, read-out self-splicing fitness (ln), for `CUGCAGCAAUAUUACGACCC`
Result: -3.76

Query: Data request, read-out self-splicing fitness (ln), for `GCACAGCAAUAUUACGCUUA`
Result: -0.908

Query: Data request, read-out self-splicing fitness (ln), for `CCCAAGCAAUAUUACGUUCC`
Result: -3.87

Query: Data request, read-out self-splicing fitness (ln), for `GUCGAGCAAUAUUACGCAAU`
Result: -1.08

Query: Data request, read-out self-splicing fitness (ln), for `CAGGAGCAAUAUUACGGGUA`
Result: -4.12

Query: Data request, read-out self-splicing fitness (ln), for `CCGCAGCAAUAUUACGCGAG`
Result: -3.17

Query: Data request, read-out self-splicing fitness (ln), for `CGGUAGCAAUAUUACGGAGC`
Result: -3.01

Query: Data request, read-out self-splicing fitness (ln), for `UAACAGCAAUAUUACGGAAC`
Result: -3.85

Query: Data request, read-out self-splicing fitness (ln), for `UUUAAGCAAUAUUACGGGAA`
Result: -1.63

Query: Data request, read-out self-splicing fitness (ln), for `UGAAAGCAAUAUUACGGUUA`
Result: -0.156

Query: Data request, read-out self-splicing fitness (ln), for `GAAUAGCAAUAUUACGGGGU`
Result: -3.77

Query: Data request, read-out self-splicing fitness (ln), for `AGGUAGCAAUAUUACGACGA`
Result: -0.363

Query: Data request, read-out self-splicing fitness (ln), for `UGAUAGCAAUAUUACGACUA`
Result: -0.635

Query: Data request, read-out self-splicing fitness (ln), for `GGACAGCAAUAUUACGUGGG`
Result: -2.49

Query: Data request, read-out self-splicing fitness (ln), for `GGACAGCAAUAUUACGCUCG`
Result: -0.123

Query: Data request, read-out self-splicing fitness (ln), for `ACGAAGCAAUAUUACGUCCA`
Result: -0.408

Query: Data request, read-out self-splicing fitness (ln), for `UCAAAGCAAUAUUACGCCCA`
Result: -1.32

Query: Data request, read-out self-splicing fitness (ln), for `ACAUAGCAAUAUUACGUCAA`
Result: -3.99

Query: Data request, read-out self-splicing fitness (ln), for `UCCAAGCAAUAUUACGCUGG`
Result: -4.72

Query: Data request, read-out self-splicing fitness (ln), for `CCCGAGCAAUAUUACGAGGU`
Result: -3.75

Query: Data request, read-out self-splicing fitness (ln), for `GGACAGCAAUAUUACGCGCG`
Result: 0.181

Query: Data request, read-out self-splicing fitness (ln), for `UUAUAGCAAUAUUACGGUGA`
Result: -0.606

Query: Data request, read-out self-splicing fitness (ln), for `GACGAGCAAUAUUACGGAUA`
Result: -2.52

Query: Data request, read-out self-splicing fitness (ln), for `UCUCAGCAAUAUUACGUCUU`
Result: -3.25

Query: Data request, read-out self-splicing fitness (ln), for `CCCAAGCAAUAUUACGUGUA`
Result: -2.85

Query: Data request, read-out self-splicing fitness (ln), for `CACCAGCAAUAUUACGGGCG`
Result: -1.81

Query: Data request, read-out self-splicing fitness (ln), for `UAAAAGCAAUAUUACGUUGG`
Result: -2.36

Query: Data request, read-out self-splicing fitness (ln), for `AGAUAGCAAUAUUACGAGCA`
Result: -0.984

Query: Data request, read-out self-splicing fitness (ln), for `UUUAAGCAAUAUUACGAUAA`
Result: -0.773

Query: Data request, read-out self-splicing fitness (ln), for `AUACAGCAAUAUUACGCGUA`
Result: -1.76

Query: Data request, read-out self-splicing fitness (ln), for `AACGAGCAAUAUUACGUAGC`
Result: -3.51

Query: Data request, read-out self-splicing fitness (ln), for `UCUCAGCAAUAUUACGUUGG`
Result: -3.58

Query: Data request, read-out self-splicing fitness (ln), for `GAAAAGCAAUAUUACGUAGA`
Result: -0.772

Query: Data request, read-out self-splicing fitness (ln), for `CCCGAGCAAUAUUACGUUCC`
Result: -2.86

Query: Data request, read-out self-splicing fitness (ln), for `UUGCAGCAAUAUUACGGAGC`
Result: -2.2

Query: Data request, read-out self-splicing fitness (ln), for `UUUGAGCAAUAUUACGAUAC`
Result: -3.55

Query: Data request, read-out self-splicing fitness (ln), for `CCGUAGCAAUAUUACGCCAG`
Result: -1.17

Query: Data request, read-out self-splicing fitness (ln), for `CGGAAGCAAUAUUACGGACG`
Result: -3

Query: Data request, read-out self-splicing fitness (ln), for `GGGGAGCAAUAUUACGGCGA`
Result: -2.4

Query: Data request, read-out self-splicing fitness (ln), for `GACGAGCAAUAUUACGACGU`
Result: -2.31

Query: Data request, read-out self-splicing fitness (ln), for `UGUAAGCAAUAUUACGCUUU`
Result: -3.09

Query: Data request, read-out self-splicing fitness (ln), for `GUGAAGCAAUAUUACGCUUG`
Result: -1.44

Query: Data request, read-out self-splicing fitness (ln), for `UGUGAGCAAUAUUACGAUAA`
Result: -2.33
